Biological target: KiSS-1 receptor (Rattus norvegicus)
Sequence (Q924U1 whole entry): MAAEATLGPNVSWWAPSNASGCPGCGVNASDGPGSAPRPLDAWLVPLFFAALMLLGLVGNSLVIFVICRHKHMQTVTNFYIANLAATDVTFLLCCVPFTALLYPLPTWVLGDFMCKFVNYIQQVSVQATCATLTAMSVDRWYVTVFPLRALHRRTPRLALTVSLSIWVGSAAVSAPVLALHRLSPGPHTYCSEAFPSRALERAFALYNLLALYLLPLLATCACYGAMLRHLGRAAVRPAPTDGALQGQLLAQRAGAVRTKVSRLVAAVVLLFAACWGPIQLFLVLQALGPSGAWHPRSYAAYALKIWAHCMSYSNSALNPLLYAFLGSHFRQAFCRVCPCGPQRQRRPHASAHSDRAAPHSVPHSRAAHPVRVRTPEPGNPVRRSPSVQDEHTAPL
Test: Agonist activity at rat KISS1R transfected in CHO cells assessed as intracellular calcium flux after 24 hrs by functional FLIPR assay
Where a SMILES comes first, the peptide text is derived from it. [ ]: non-standard residue; d: D form. Arg(Me) = CNC(=N)NCCC[C@H](N)C(=O)O; azaGly = NNC(=O)O
Assay Readout: pEC50
Bear in mind: pEC50 is minus log10 of a mol/L concentration; give just that figure.

Below are worked cases with known answers.
[[record]]
molecule = "CNC(=N)NCCC[C@H](NC(=O)[C@H](CC(C)C)NC(=O)NNC(=O)[C@H](Cc1ccccc1)NC(=O)[C@@H](NC(=O)[C@H](CC(N)=O)NC(=O)[C@@H](Cc1c[nH]c2ccccc12)NC(=O)[C@@H](Cc1ccc(O)cc1)NC(C)=O)[C@@H](C)O)C(=O)N[C@@H](Cc1ccccc1)C(N)=O"
assay_readout = "pEC50"
reported = 8.41

[[record]]
molecule = "CNC(=N)NCCC[C@H](NC(=O)[C@H](CC(C)C)NC(=O)NNC(=O)[C@H](Cc1ccccc1)NC(=O)[C@@H](NC(=O)[C@H](CC(N)=O)NC(=O)[C@@H](Cc1ccncc1)NC(=O)[C@H](N)Cc1ccc(O)cc1)C(C)C)C(=O)N[C@@H](Cc1c[nH]c2ccccc12)C(N)=O"
assay_readout = "pEC50"
reported = 7.92

[[record]]
molecule = "CNC(=N)NCCC[C@H](NC(=O)[C@H](CC(C)C)NC(=O)NNC(=O)[C@H](Cc1ccccc1)NC(=O)[C@H](CO)NC(=O)[C@H](C)NC(=O)[C@@H](Cc1ccncc1)NC(=O)[C@H](N)Cc1ccc(O)cc1)C(=O)N[C@@H](Cc1c[nH]c2ccccc12)C(N)=O"
assay_readout = "pEC50"
reported = 8.03

[[record]]
molecule = "CNC(=N)NCCC[C@H](NC(=O)[C@H](CC(C)C)NC(=O)NNC(=O)[C@H](Cc1ccccc1)NC(=O)[C@@H](NC(=O)[C@H](CC(N)=O)NC(=O)[C@@H](Cc1ccncc1)NC(=O)[C@H](N)Cc1ccc(O)cc1)c1ccccc1)C(=O)N[C@@H](Cc1c[nH]c2ccccc12)C(N)=O"
assay_readout = "pEC50"
reported = 6.96


Lookup: What measured pEC50 is associated with `CNC(=N)NCCC[C@H](NC(=O)[C@H](CC(C)C)NC(=O)NNC(=O)[C@H](Cc1ccccc1)NC(=O)[C@@H](NC(=O)[C@H](CC(N)=O)NC(=O)[C@@H](Cc1ccncc1)NC(=O)[C@@H](Cc1ccc(O)cc1)NC(C)=O)[C@@H](C)O)C(=O)N[C@@H](Cc1c[nH]c2ccccc12)C(N)=O` on KiSS-1 receptor (Rattus norvegicus)?
Found: 8.39

Lookup: pEC50 / KiSS-1 receptor (Rattus norvegicus) / CNC(=N)NCCC[C@H](NC(=O)[C@H](CC(C)C)NC(=O)NNC(=O)[C@H](Cc1ccccc1)NC(=O)[C@@H](NC(=O)[C@H](CC(N)=O)NC(=O)[C@@H](Cc1c[nH]c2ccccc12)NC(=O)[C@@H](Cc1ccc(O)cc1)NC(C)=O)[C@@H](C)O)C(=O)N[C@@H](Cc1c[nH]c2ccccc12)C(N)=O (Ac-[dY][dW]NTF[azaGly]L[Arg(Me)]W-NH2)
Found: 8.89

Lookup: What reported pEC50 corresponds to `CNC(=N)NCCC[C@H](NC(=O)[C@H](CC(C)C)NC(=O)NNC(=O)[C@H](Cc1ccccc1)NC(=O)[C@H](CO)NC(=O)[C@H](C)NC(=O)[C@@H](Cc1c[nH]c2ccccc12)NC(=O)[C@H](N)Cc1ccc(O)cc1)C(=O)N[C@@H](Cc1c[nH]c2ccccc12)C(N)=O` on KiSS-1 receptor (Rattus norvegicus)?
Found: 8.17
